- System: S. aureus (ATCC 6538)
- test: Disk diffusion antimicrobial test, S. aureus
- Format: cell-based, Staphylococcus aureus
- cond: Staphylococcus aureus, ATCC6538, Gram-positive, 20 mg per disc (title), concentration 20 µg (footnote)
Recorded measurements of zone of inhibition at 20 µg/disc, one per entry

{"columns": ["compound", "zone of inhibition at 20 µg/disc / mm"],
 "data": [
  ["CCOc1c(C2=NNC3(C2)C(=O)Nc2ccccc23)c(OC)c2ccoc2c1OC (centres unmarked) [Compound 12c]", 10],
  ["COc1c(-c2cnc3ccccc3c2C(=O)O)c(O)cc2occc12 [Compound 15a]", 8],
  ["COc1c(C2=NNC3(C2)C(=O)Nc2ccccc23)c(OC)c2ccoc2c1OC (centres unmarked) [Compound 12b]", 10],
  ["COc1c(C2=NNC3(C2)C(=O)Nc2ccccc23)c(O)c(OC)c2occc12 (centres unmarked) [Compound 12a]", 8],
  ["CC1(C)S[C@@H]2[C@H](NC(=O)[C@H](N)c3ccc(O)cc3)C(=O)N2[C@H]1C(=O)O [Amoxicillin, amoxicillin, reference compound]", 25.6]
]}

----------
- Tested on: HepG-2 (human liver cancer)
- test: MTT cytotoxicity assay, HepG-2
- Format: cell-based
- cond: HepG2, 100 µg/ml, 48 h, read-out: Growth Inhibition (%) HepG-2
# inhibition at 100 µg/mL per entry
attributeMeasured: inhibition at 100 µg/mL (%)

{"columns": ["compound", "attributeMeasured", "measuredValue"],
 "data": [
  ["O=C1Nc2ccccc2C12CC(c1cn(S(=O)(=O)c3ccccc3[N+](=O)[O-])c3ccccc13)=NN2 (stereo not shown) [Compound 13i]", "inhibition at 100 µg/mL", 96.8],
  ["O=C1Nc2ccccc2C12CC(c1cn(S(=O)(=O)c3ccc(Br)cc3)c3ccccc13)=NN2 (stereo not shown) [Compound 13g]", "inhibition at 100 µg/mL", 81.9],
  ["COc1cccc2c1C(=O)c1c(O)c3c(c(O)c1C2=O)C[C@@](O)(C(=O)CO)C[C@@H]3O[C@H]1C[C@H](N)[C@H](O)[C@H](C)O1 [Doxorubicin, doxorubicin, reference compound]", "inhibition at 100 µg/mL", 100],
  ["O=C(c1ccccc1Cl)n1cc(C2=NNC3(C2)C(=O)Nc2ccccc23)c2ccccc21 (stereo not shown) [Compound 13e]", "inhibition at 100 µg/mL", 79.8]
]}

----------
- System: normal skin fibroblast cells (BJ-1)
- test: MTT cytotoxicity assay, normal skin fibroblast BJ-1
- Type: cell-based
- cond: Homo sapiens, 48 h, read-out: Growth Inhibition (%) BJ-1

{"columns": ["compound", "inhibition at 100 µg/mL [%]"],
 "data": [
  ["O=C(c1ccc(Cl)cc1)n1cc(C2=NNC3(C2)C(=O)Nc2ccccc23)c2ccccc21 (stereo not drawn) [Compound 13f]", 16.4],
  ["O=C1Nc2ccccc2C12CC(c1cn(S(=O)(=O)c3ccc(Cl)cc3)c3ccccc13)=NN2 (stereo not drawn) [Compound 13h]", 14.1],
  ["O=C1Nc2ccccc2C12CC(c1c[nH]c3ccccc13)=NN2c1ccccc1 (stereo not drawn) [Compound 14a]", 14.2],
  ["O=C1Nc2ccccc2C12CC(c1cn(Cc3ccccc3)c3ccccc13)=NN2 (stereo not drawn) [Compound 13c]", 5.1],
  ["COc1c(C2=NNC3(C2)C(=O)Nc2ccccc23)c(O)c(OC)c2occc12 (stereo not drawn) [Compound 12a]", 9.1],
  ["CCn1cc(C2=NN(c3ccccc3)C3(C2)C(=O)Nc2ccccc23)c2ccccc21 (stereo not drawn) [Compound 14b]", 8.1],
  ["O=C1Nc2ccccc2C12CC(c1cn(S(=O)(=O)c3ccc(Br)cc3)c3ccccc13)=NN2c1ccccc1 (stereo not drawn) [Compound 14g]", 16],
  ["O=C1Nc2ccccc2C12CC(c1c[nH]c3ccccc13)=NN2 (stereo not drawn) [Compound 13a]", 11.6],
  ["O=C(c1ccc(Cl)cc1)n1cc(C2=NN(c3ccccc3)C3(C2)C(=O)Nc2ccccc23)c2ccccc21 (stereo not drawn) [Compound 14f]", 14.5],
  ["CCOc1cc2occc2c(OC)c1C1=NNC2(C1)C(=O)Nc1ccccc12 (stereo not drawn) [Compound 11c]", 45.2],
  ["O=C1Nc2ccccc2C12CC(c1cn(Cc3ccccc3)c3ccccc13)=NN2c1ccccc1 (stereo not drawn) [Compound 14c]", 13.6],
  ["O=C1Nc2ccccc2C12CC(c1cn(S(=O)(=O)c3ccccc3[N+](=O)[O-])c3ccccc13)=NN2 (stereo not drawn) [Compound 13i]", 69.4],
  ["COc1cccc2c1C(=O)c1c(O)c3c(c(O)c1C2=O)C[C@@](O)(C(=O)CO)C[C@@H]3O[C@H]1C[C@H](N)[C@H](O)[C@H](C)O1 [Doxorubicin, doxorubicin, reference compound]", 0],
  ["O=C(c1ccccc1)n1cc(C2=NNC3(C2)C(=O)Nc2ccccc23)c2ccccc21 (stereo not drawn) [Compound 13d]", 7],
  ["O=C(c1ccccc1)n1cc(C2=NN(c3ccccc3)C3(C2)C(=O)Nc2ccccc23)c2ccccc21 (stereo not drawn) [Compound 14d]", 9.5]
]}
